kon reference
Target: T1, extracellular domain of hIL-13Rα1 cleaved from hIL-13Rα1:hFc chimeric protein (human, UniProt P78552 22-343)
T1 construct: extracellular domain; also called Cleaved hIL-13Rα1 molecules (MW 40 kDa)
T1 sequence (looked up): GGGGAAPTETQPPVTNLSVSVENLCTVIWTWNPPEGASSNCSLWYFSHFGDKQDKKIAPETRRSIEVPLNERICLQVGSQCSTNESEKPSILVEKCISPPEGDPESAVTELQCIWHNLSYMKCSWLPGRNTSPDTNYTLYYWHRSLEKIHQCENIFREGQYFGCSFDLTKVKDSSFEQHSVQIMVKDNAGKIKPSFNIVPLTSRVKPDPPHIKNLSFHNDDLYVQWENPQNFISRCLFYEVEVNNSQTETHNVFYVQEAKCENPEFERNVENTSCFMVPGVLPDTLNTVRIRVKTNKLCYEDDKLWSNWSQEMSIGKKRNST
Test: SPR Biacore 3000, C1 chip, HuMab captured by anti-hFcγ, cleaved hIL-13Rα1 as analyte, 1:1 Langmuir model
Protocol: For interaction analysis, a Biacore 3000 instrument was used. Running and reaction buffer was HBS-P (10 mM HEPES, 150 mM NaCl, 0.005% polysurfactant P, pH 7.4) at 25° C. Capturing antibody molecules (anti-hFcγ) were amine-coupled at a concentration of 100 μg/ml at a flow rate of 5 μl/min for 20 minutes. HuMabs were injected at concentrations of 10 μg/ml at a flow rate of 10 μl/min for 30 seconds. […] Kinetic data were calculated by fitting kinetic data to a 1:1 Langmuir binding model.

| BINDER | kon / M⁻¹ s⁻¹ |
| --- | --- |
| HuMab LC5002-005 (antibody, V domains shown, Only the variable domains are tied to this antibody; also called hu-MAB<h-IL-13Ralpha>LC.5002-005 (DSM ACC2711)) VH: EVQVLDSGGGLVQPGGSLRLSCTASGFTFRLYTMSWVRQTPGRGLEWVSGISGSGLSTYFADSVKGRFTISRDNSKNTVYLQMNSLRAEDTAVYYCAKEGDWIYFDSWGQGTLVIVSS VL: DIQMTQSPSSLSASVGDRVTITCRASQGISSWLAWYQQKPEKAPKSLIYAASSLQSGVPSRFSGSGSGTDFTLTISSLQPEDFATYYCQQYNSHPPTFGQGTKLEIK | 1.4e+06 |
| HuMab LC5002-003 (antibody, V domains shown, Human IgG1 kappa from a HuMab mouse hybridoma; Only the variable domains are tied to this antibody; also called LC50002-003; hu-MAB<h-IL-13Ralpha>LC.5002-003 (DSM ACC2710)) VH: EVQLLESGGDLIQPGGSLRLSCAASGFTFNIYAMNWVRQAPGKGLEWVSVISGRGITTYYADSVKGRFTISRDNSKNTLYLQMDSLRAEDTAVYYCAKGSSYWTDFDYWGQGTLVTVSS VL: DIQMTQSPSSLSASVGDRVTITCRASQGISSWLAWYQQKPEKAPKSLIYAASSLQSGVPSRFSGSGSGTDFTLTISSLQPEDFATYYCQQYNSYPWTFGQGTKVEIK | 1.3e+06 |
| HuMab LC5002-007 (antibody, human IgG1, V domains shown, Human IgG1 kappa from a HuMab mouse hybridoma; Only the variable domains are tied to this antibody; also called hu-MAB<h-IL-13R alpha>LC.5002-007 (DSM ACC2712)) VH: QVQLVQSGAEVKKPGSSVKVSCKVSGGTFSSYAFSWVRQAPGQGLEWMGRIIPILGRTNYAQKFQGRVTITADKSTSTAYMEVSSLRSEDTAVYYCAREGETLDYFYYGMDVWGQGTTVTVSS VL: EIVLTQSPGTLSLSPGERATLSCRASQSVSSSYLAWYQQKPGQAPRLLIYGASSRAIGIPDRFSGSGSGTDFTLTISRLEPEDFAVYYCQHYGSSLTFGGGTKVEIK | 190000 |
| LC5002-005, mutant L234A; L235A (antibody, V domains shown, Recombinant IgG1 variant; also called IgG1 ala-ala LC5002-005; recombinant variant IgG1-Ala-Ala) VH: EVQVLDSGGGLVQPGGSLRLSCTASGFTFRLYTMSWVRQTPGRGLEWVSGISGSGLSTYFADSVKGRFTISRDNSKNTVYLQMNSLRAEDTAVYYCAKEGDWIYFDSWGQGTLVIVSS VL: DIQMTQSPSSLSASVGDRVTITCRASQGISSWLAWYQQKPEKAPKSLIYAASSLQSGVPSRFSGSGSGTDFTLTISSLQPEDFATYYCQQYNSHPPTFGQGTKLEIKR | 1.4e+06 |
| HuMab LC5002-002 (antibody, human IgG1, V domains shown, Human IgG1 kappa from a HuMab mouse hybridoma; Only the variable domains are tied to this antibody; also called hu-MAB<h-IL-13R alpha>LC.5002-002 (DSM ACC2709)) VH: EVQLLESGGGLVQPGGSLRLSCAASGFTFNIYAMNWVRQAPGKGLEWVSVISGRGITTYYADSVKGRFTISRDNSKNTLYLQMNSLRADDTAVYYCAKGSSSWTDFDYWGQGTLVTVSS VL: DIQMTQSPSSLSASVGDRVTITCRASQGISRWVAWYQQKPEKAPKSLIYAASSLQSGVPSRFSGSGSGTDFTLTISSLQPEDFATYYCQQYNSYPWTFGQGTKVEIK | 1.1e+06 |
